Test system: T-47D breast
Test: NCI-60 one-dose screen, 48 h (100 = growth as untreated, 0 = no growth, -100 = all killed)
Details: 10 µM
The panel holds about 83,000 compounds, 20% with a hit somewhere; the sample as a whole holds those more often.
Doc: threshold 60% (exclusive). Items with growth beneath it return y; others return n.

Worked set:
compound: CCOc1ccc(Nc2nc3ccccc3nc2Nc2ccc(OCC)cc2)cc1
label: y
//
compound: N#Cc1c(NC(=O)c2ccc(C(F)(F)F)cc2)sc2c1CCC(=O)C2
label: y
//
compound: C=C1CCC2C3(C)COC(c4cc(F)cc(F)c4)OC3CCC2(C)C1C/C=C1/C(=O)OCC1O (centres undefined)
label: y
//
compound: COc1cc2c3c(n(CCCNCCO)c(=O)c2cc1OC)-c1nc2c(cc1C3=O)OCO2
label: y
//
compound: COC(=O)CC1CC1C1Cc2c(nc(N(C)S(C)(=O)=O)nc2C(C)C)-c2ccc(F)cc21 (centres undefined)
label: n

query: Lab note: confirm whether the reported growth for this compound is below 60%, equality not counting. compound: O=C(Cn1nc(-c2ccccc2)ccc1=O)NN1C(=O)c2ccccc2C1=O
result: n

query: Lab note: confirm whether the reported growth for this compound is below 60%, equality not counting. compound: Cc1ccc(C(=O)NNC(=O)CSc2nc3ccccc3c(=O)[nH]2)cc1
result: n

query: Lab note: confirm whether the reported growth for this compound is below 60%, equality not counting. compound: O=c1[nH]c2ccccc2cc1CSc1ccc(Nc2nccc(-c3ccc4ccccc4c3)n2)cc1
result: n

query: Lab note: confirm whether the reported growth for this compound is below 60%, equality not counting. compound: CN1CCN(c2ccc(Nc3nc(N4CCN(S(=O)(=O)c5ccc(Cl)cc5)CC4)c4sccc4n3)cc2)CC1
result: y
